Data credit: patent US8206704B2

# Method summary: Pharmacokinetics of ST in rats
# Format: in vivo, rat
# Stated conditions: rat, in vivo, rat, α phase; read-out: Blood half-life for ST (rat), α

Smiles input: CC(C)C[C@@H]1NC(=O)[C@H](CCC(=O)O)NC(=O)[C@@H]2CSSC[C@@H]3NC(=O)[C@H](C)NC(=O)[C@@H]4CCCN4C(=O)[C@H](CC(N)=O)NC(=O)[C@H](CSSC[C@H](NC(=O)[C@H](Cc4ccc(O)cc4)NC(=O)[C@H](Cc4ccccc4)NC(=O)[C@@H](NC(=O)[C@@H](N)CC(N)=O)[C@@H](C)O)C(=O)N2)NC(=O)[C@H](CSSC[C@@H](C(=O)N[C@@H](Cc2ccc(O)cc2)C(=O)O)NC(=O)CNC(=O)[C@H](C)NC3=O)NC1=O
half-life [min]: 6
